test: DPPH free radical scavenging assay; conditions: compounds; 30 min, room temperature
measurement type: IC50 (µM)

a: O=C(O)/C=C/c1ccc(O)c(O)c1 [Compound 5, caffeic acid]
b: O=C(/C=C/c1ccc(O)cc1)OCC(O)COC(=O)/C=C/c1ccc(O)c(O)c1 (stereo not shown) [Compound 8, 1-O-p-coumaroyl-3-O-caffeoylglycerol]
Endpoint returns the identifier whose IC50 is numerically larger, either a or b . Answer by stating the label of the chosen item.
b
(b: 14.8 µM, a: 7.41 µM)

* * *

target: α-glucosidase (Saccharomyces cerevisiae); assay: α-Glucosidase inhibition assay (pNPG substrate); format: biochemical; conditions: at a concentration of 20 μM; read-out: α-Glucosidase Inhibitory Rate
Sequence (P53341 whole entry): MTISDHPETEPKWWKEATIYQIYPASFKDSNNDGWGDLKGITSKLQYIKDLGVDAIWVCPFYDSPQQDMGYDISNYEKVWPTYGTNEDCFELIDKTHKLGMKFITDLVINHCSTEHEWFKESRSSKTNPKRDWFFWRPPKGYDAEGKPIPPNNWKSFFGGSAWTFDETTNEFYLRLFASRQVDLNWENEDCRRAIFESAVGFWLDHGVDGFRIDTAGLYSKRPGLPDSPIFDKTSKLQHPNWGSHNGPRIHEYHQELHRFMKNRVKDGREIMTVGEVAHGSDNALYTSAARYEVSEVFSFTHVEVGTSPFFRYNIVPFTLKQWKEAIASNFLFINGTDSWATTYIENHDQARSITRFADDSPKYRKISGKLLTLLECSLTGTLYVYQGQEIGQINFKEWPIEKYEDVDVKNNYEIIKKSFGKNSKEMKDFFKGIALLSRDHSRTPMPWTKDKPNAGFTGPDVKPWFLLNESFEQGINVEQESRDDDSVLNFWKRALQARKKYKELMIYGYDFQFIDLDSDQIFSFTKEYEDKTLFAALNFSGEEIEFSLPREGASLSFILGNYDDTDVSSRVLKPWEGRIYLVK
measurement type: inhibition at 20 µM (%)

- compound: "O=C(/C=C/c1ccc(O)c(O)c1)OCC(O)COC(=O)/C=C/c1ccc(O)c(O)c1"
  unit abbrev: "%"
  inhibition at 20 µM: 88.8

a: O=C(/C=C/c1ccc(O)cc1)OCC(O)COC(=O)/C=C/c1ccc(O)cc1
b: COc1cc(OC2OC(CO)C(O)C(O)C2O)cc(O)c1C(C)=O (stereo not shown)
Endpoint returns the identifier whose inhibition at 20 µM is numerically larger, either a or b . Answer by stating the label of the chosen item.
a
(a: 46.1%, b: 22.6%)
